# Test system: Vero E6
# method description: cell viability relative to DMSO; higher = less toxic
# condition notes: 72 h; 1 nM
measurement name: cell viability (%)
Answer with a number only, understood to be in %.

compound=CNC(=O)c1ccc(Nc2ncc(C(F)(F)F)c(NCc3nccnc3N(C)S(C)(=O)=O)n2)cc1 assayed_system="Vero E6" recorded_value=106
compound=Cc1ncc(CO)c(C=O)c1O assayed_system="Vero E6" recorded_value=102
compound=O=C1Nc2ccc(Cl)cc2[C@@](C#CC2CC2)(C(F)(F)F)O1 assayed_system="Vero E6" recorded_value=98.4
compound=O=C(O)[C@H](Cc1ccccc1)NCc1ccc(Cl)cc1 assayed_system="Vero E6" recorded_value=99.8

For CC(C)(C)S(=O)(=O)N[C@H]1CC[C@H](C(=O)Nc2ccc(C(F)(F)F)cn2)CC1 , what is its reported cell viability?
94.4

Also, O=C(OC(C(F)(F)F)C(F)(F)F)N1CCC(C(O)(c2ccc3c(c2)OCO3)c2ccc3c(c2)OCO3)CC1 please.
94

Repeat with CC(C)(C)C[C@@H]1N[C@@H](C(=O)N[C@H]2CC[C@H](O)CC2)[C@H](c2cccc(Cl)c2F)[C@]12C(=O)Nc1cc(Cl)ccc12
100

Also C[N+]1(C)[C@@H]2CC[C@H]1C[C@@H](OC(=O)C(O)c1ccccc1)C2 (stereo partly drawn) [homatropine-methylbromide] , if possible.
101

Now the same for Cc1occc(=O)c1[O-].Cc1occc(=O)c1[O-].[O]=[V+2]
94

Try this compound too: CCC(CC)O[C@@H]1C=C(C(=O)O)C[C@H](N)[C@H]1NC(C)=O [oseltamivir-carboxylate]
98.4

Queued: Cc1ccc(F)c(NC(=O)Nc2ccc(-c3cccc4[nH]nc(N)c34)cc2)c1
93.1

For C=CC(=O)N1CCC(Oc2cc3c(Nc4ccc(Cl)c(Cl)c4F)ncnc3cc2OC)CC1 then?
86.4

Same again, this time with O=c1[nH]cc(F)c(=O)[nH]1
102

###

# System: U2OS
# method description: cell viability relative to DMSO; higher = less toxic
# condition notes: 72 h; 10000 nM
# YES = cell viability below 90% (exclusive); NO = cell viability at/above 90%

molecule=Clc1ccc2c(c1)N=C(N1CCNCC1)c1ccccc1N2 assigned_category=NO

Confirm or reject: cell viability of C[N+]1(C)[C@@H]2CC[C@H]1C[C@@H](OC(=O)C(O)c1ccccc1)C2 (stereo partly drawn) [homatropine-methylbromide] lies strictly below 90%
NO

Entry O=C(/C=C/c1ccc2c(c1)OCO2)N1CCCCC1 [ilepcimide] please
NO

###

# Tested on: Calu-3
# method description: cell viability relative to DMSO; higher = less toxic
# condition notes: 72 h; 1 nM
measurement name: cell viability (%)
Report the figure in % without appending any unit label.

compound="O=C1CCC2CCC(=O)N12 [rolziracetam]" measurement_name="cell viability" units_symbol=% recorded_value=91
compound="C[C@@]12CCc3occc3[C@H]1CC[C@@]13C[C@@H](CC[C@H]12)[C@@](O)(CO)C3 [cafestol]" measurement_name="cell viability" units_symbol=% recorded_value=104

We now examine a further compound.
Entry O=C(O)[C@H](Cc1ccccc1)NCc1ccc(Cl)cc1 has what cell viability?
92.8

###

# Test system: HepG2
# method description: cell viability relative to DMSO; higher = less toxic
# condition notes: 72 h; 1 nM
measurement name: cell viability (%)
Reply with just the number (in %).

smiles_repr=N[C@@H]1CONC1=O measurement_name="cell viability" units_symbol=% recorded_value=106
smiles_repr=C[C@]12CCC(=O)C=C1[C@@H]1C[C@@H]1[C@H]1[C@@H]3[C@@H]4C[C@@H]4[C@@]4(CCC(=O)O4)[C@@]3(C)CC[C@@H]12 measurement_name="cell viability" units_symbol=% recorded_value=99.1
smiles_repr=O=c1cccc2n1C[C@H]1C[C@@H]2CN(CCN2C[C@@H]3C[C@H](C2)c2cccc(=O)n2C3)C1 measurement_name="cell viability" units_symbol=% recorded_value=91.3
smiles_repr=CC1=C(/C=C/C(C)=C/C=C/C(C)=C/C=C/C=C(C)/C=C/C=C(C)/C=C/C2=C(C)CCCC2(C)C)C(C)(C)CCC1 measurement_name="cell viability" units_symbol=% recorded_value=96.1
smiles_repr=C#C[C@]1(O)CC[C@H]2[C@@H]3CCC4=CC(=O)CC[C@@H]4[C@H]3C(=C)C[C@@]21CC measurement_name="cell viability" units_symbol=% recorded_value=95.4

What does the data say about its cell viability? Entry: NC1(C(=O)O)CC1
103

What about this molecule? Fc1ccc(C(OCCN2CCN(CCCc3ccccc3)CC2)c2ccc(F)cc2)cc1
102

###

cell viability: recorded values
# Test system: Vero E6
# method description: cell viability relative to DMSO; higher = less toxic
# condition notes: 72 h; 10 nM
Numbers only here, please. The scale is %.

compound=O=C1c2cccc(O)c2C(=O)c2c(O)cccc21 measurement_name="cell viability" recorded_value=89.2

Can you share its cell viability? I mean this compound: CC(=O)Oc1cc(C(F)(F)F)ccc1C(=O)O
96.9

# repeat for CC1(COc2ccc3c(c2)ncn3-c2ccc3cccc(N4CCC(N)CC4)c3n2)COC1
104

Entry to check: N=C(N)c1ccc(/C=C/c2ccc(C(=N)N)cc2O)cc1 [hydroxystilbamidine]
100

Please give the result for C[N+](C)(CCOc1ccccc1)Cc1ccccc1 [bephenium-hydroxynaphthoate] too.
96.9

###

# Test system: Calu-3
# method description: cell viability relative to DMSO; higher = less toxic
# condition notes: 72 h; 10000 nM
Flag rule - cell viability less than 90% flags Criterion met; the remaining entries get Criterion not met.

Check out these entries, answers already filled in.
compound=CC1(C)S[C@@H]2[C@H](NC(=O)[C@H](C(=O)O)c3ccsc3)C(=O)N2[C@H]1C(=O)O assigned_category="Criterion not met"
compound="Cc1ccc(C(=O)C(C)CN2CCCCC2)cc1 (stereo not drawn)" assigned_category="Criterion not met"

Is cell viability of COc1ccc2c(c1)C(=O)N(CCc1ccc(S(=O)(=O)NC(=O)NC3CCCCC3)cc1)C(=O)C2(C)C strictly below 90%?
Criterion not met

# iterate: O=C(c1ccc(OCCCc2c[nH]cn2)cc1)C1CC1
Criterion not met

Continue with CN1CC(O)C2=C/C(=N/NC(N)=O)C(=O)C=C21 (stereo not drawn)
Criterion not met

Also c1cc(-c2cnn3cc(-c4ccc(OCCN5CCCCC5)cc4)cnc23)ccn1 ?
Criterion met

And O=C1NC(=O)/C(=C/c2ccc(-c3ccc(F)cc3O)o2)S1 ?
Criterion met

Now the compound O=C(/C=C/c1ccc2c(c1)OCO2)N1CCCCC1 [ilepcimide]
Criterion not met

###

# Test system: HepG2
# method description: drug sensitivity score (DSS) for viability; higher = more toxic; extreme values may be limits of the assay
# condition notes: 72 h
measurement name: drug sensitivity score
Give the figure only, with no unit attached.

compound=CN1CCN(S(=O)(=O)c2ccc(-c3cnc(N)c(C(=O)Nc4cccnc4)n3)cc2)CC1 recorded_value=1.7
compound="CN1CC(O)C2=C/C(=N/NC(N)=O)C(=O)C=C21 (stereo unspecified)" recorded_value=0
compound=CC(C)c1nc(N(C)S(C)(=O)=O)nc(-c2ccc(F)cc2)c1/C=C/[C@@H](O)C[C@@H](O)CC(=O)O recorded_value=0
compound=CCN(CC)CC(=O)Nc1c(C)cccc1C recorded_value=0
compound=Cn1cncc1[C@@](N)(c1ccc(Cl)cc1)c1ccc2c(c1)c(-c1cccc(Cl)c1)cc(=O)n2C recorded_value=10.6

Note: attention shifts to another entry.
Would you mind telling me what drug sensitivity score value was observed for Cc1ccc([N+](=O)[O-])cc1S(=O)(=O)N(C)/N=C/c1cnc2ccc(Br)cn12 ?
26.8

###

# System: Vero E6
# method description: cell viability relative to DMSO; higher = less toxic
# condition notes: 72 h; 100 nM
Counter-ions that a name gives are not always drawn.
measurement name: cell viability (%)
Reply with just the number (in %).

compound=COc1ccc(Cl)c(Nc2ncnc3cc(OCC4CCN(C)CC4)c(OC)cc23)c1 recorded_value=89.7
compound="CO/N=C(\\C(=O)N[C@@H]1C(=O)N2C(C(=O)O)=C(Cn3ccc(=N)n3CCO)CS[C@H]12)c1csc(N)n1 [Cefoselis sulfate]" recorded_value=105
compound="Cc1nccc2c1[nH]c1ccccc12 [harmane]" recorded_value=94.3
compound="CN(C)CCCN1c2ccccc2CCc2ccccc21 [imipramine]" recorded_value=99.4
compound=CNC(=O)c1nn(C)c2c1C(C)(C)Cc1cnc(Nc3ccc(N4CCN(C)CC4)cc3)nc1-2 recorded_value=85

Param readout = cell viability; param system = Vero E6; param query = CC1CCN(C(c2ccc(F)cc2)c2ccc(C(C)C(=O)O)cc2-c2ccc(C(F)(F)F)cc2)CC1 (centres undefined) [TC-E-5006] ; response: value
95.4

Quick one: O=C(O)[C@@H]1C[C@@H](O)CN1 [L-hydroxyproline]
99.5

// same read-out, input: CCOC(=O)N[C@@H]1CC[C@@H]2[C@@H](C1)C[C@H]1C(=O)O[C@H](C)[C@H]1[C@H]2/C=C/c1ccc(-c2cccc(F)c2)cn1 [vorapaxar]
99.8

Another compound to look at: N#C[C@H](O[C@@H]1O[C@H](CO[C@@H]2O[C@H](CO)[C@@H](O)[C@H](O)[C@H]2O)[C@@H](O)[C@H](O)[C@H]1O)c1ccccc1 [amygdalin]
96
